Kindly supply the reported cell viability values for the records listed here.
Tested on: MOLM14
Procedure summary: cell viability relative to vehicle control; higher = less cytotoxic;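 further: after 48 h exposure read by CellTiter-Glo luminescence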
Measurement setup: 10 µM; SRSF2 genotype: SRSF2 wt/wt
Counter-ions that a name gives are not always drawn.
The reply must contain the numeric value and, after it, the unit.

Give a short answer stating reported cell viability for CCC[C@H](NC(=O)[C@@H]1[C@H]2CCC[C@H]2CN1C(=O)[C@@H](NC(=O)[C@@H](NC(=O)c1cnccn1)C1CCCCC1)C(C)(C)C)C(=O)C(=O)NC1CC1 .
99.2%

Give a short answer stating reported cell viability for C[C@@H]1C[C@H]2[C@@H]3CCC4=CC(=O)C=C[C@]4(C)[C@@]3(Cl)[C@@H](O)C[C@]2(C)[C@@]1(OC(=O)c1ccco1)C(=O)CCl [Mometasone furoate] .
79%

Give a short answer stating reported cell viability for CCCCOc1cc(C(=O)NCCN(CC)CC)c2ccccc2n1 [Dibucaine (Cinchocaine) HCl] .
91.7%

Give a short answer stating reported cell viability for C[C@@H]1CC[C@@]2(OC1)O[C@H]1C[C@H]3[C@@H]4CC=C5C[C@@H](O[C@@H]6O[C@H](CO)[C@@H](O)[C@H](O)[C@H]6O[C@@H]6O[C@@H](C)[C@H](O)[C@@H](O)[C@H]6O)CC[C@]5(C)[C@H]4CC[C@]3(C)[C@@]1(O)[C@@H]2C .
0.55%

Give a short answer stating reported cell viability for CN1CC[C@@H](NC(=O)Nc2ccc(C#N)cc2)C[C@@H]1c1nc2ccccc2[nH]1 .
100%

* * *

Tested on: OCI-AML2
Procedure summary: cell viability relative to vehicle control; higher = less cytotoxic
Measurement setup: 10 µM; SRSF2 genotype: P95H/wt
Counter-ions that a name gives are not always drawn.
Observable: cell viability

Give a short answer stating reported cell viability for O=C1CC(c2c[nH]c3ccc(F)cc23)C(=O)N1 (configuration not stated) .
100%

Give a short answer stating reported cell viability for O=C(O[C@@H]1Cc2c(O)cc(O)cc2O[C@H]1c1cc(O)c(O)c(O)c1)c1cc(O)c(O)c(O)c1 [Gallocatechin gallate] .
94.1%

Give a short answer stating reported cell viability for COC(=O)c1c2c(c3ccccc3c1O)OC(C)(C)C=C2 .
28.1%

Give a short answer stating reported cell viability for CC(C)[N+]1(C)[C@@H]2CC[C@H]1C[C@@H](OC(=O)C(CO)c1ccccc1)C2 (some centres not stated) [Ipratropium bromide] .
99.1%

Give a short answer stating reported cell viability for CCC(C)n1ncn(-c2ccc(N3CCN(c4ccc(OCC5COC(Cn6cncn6)(c6ccc(Cl)cc6Cl)O5)cc4)CC3)cc2)c1=O (configuration not stated) [Itraconazole (Sporanox)] .
50.8%

Give a short answer stating reported cell viability for C[C@@H](O)[C@H]1C(=O)N2C(C(=O)O)=C(S[C@@H]3CN[C@H](CNS(N)(=O)=O)C3)[C@H](C)[C@H]12 [Doripenem] .
89.2%

Give a short answer stating reported cell viability for O=C(Nc1cccnc1)N1CCC(Cc2cccc(Oc3ccc(C(F)(F)F)cn3)c2)CC1 .
38.3%

Give a short answer stating reported cell viability for CC(C)(Oc1ccc(C2CC2(Cl)Cl)cc1)C(=O)O (configuration not stated) [Ciprofibrate] .
94.3%

Give a short answer stating reported cell viability for O=C(Nc1cccc2cccnc12)c1ccc(N2C(=O)C3C4C=CC(C4)C3C2=O)cc1 (stereo not drawn) [IWR-1-endo] .
97.9%

Give a short answer stating reported cell viability for O=C(Nc1ccccc1)Nc1ccc(-c2ccc(C(=O)[C@@H]3CCC[C@H]3C(=O)O)cc2)cc1 .
103%

Give a short answer stating reported cell viability for CS(=O)(=O)Nc1cc2occ(NC=O)c(=O)c2cc1Oc1ccccc1 .
117%

Give a short answer stating reported cell viability for NC(=O)Cc1cccc(C(=O)c2ccccc2)c1N .
87.7%

Give a short answer stating reported cell viability for O=S(=O)(c1ccccc1)c1cnc2c(N3CCNCC3)cccc2c1 .
101%

Give a short answer stating reported cell viability for CC(C)C(=O)OCC(=O)[C@@]12O[C@H](C3CCCCC3)O[C@@H]1C[C@H]1[C@@H]3CCC4=CC(=O)C=C[C@]4(C)[C@H]3[C@@H](O)C[C@@]12C [Ciclesonide] .
25.5%

Give a short answer stating reported cell viability for O=C(O)c1cc(I)ccc1NC(=O)[C@H](Cc1ccccc1)NCc1ccccc1 .
110%

Give a short answer stating reported cell viability for Cc1cccc(Nc2cc(Cl)nc(SCC(=O)O)n2)c1C .
90.3%

Give a short answer stating reported cell viability for C[C@@H]1CC[C@@]2(NC1)O[C@H]1C[C@H]3[C@@H]4CC=C5C[C@@H](O[C@@H]6O[C@H](CO)[C@@H](O[C@@H]7O[C@@H](C)[C@H](O)[C@@H](O)[C@H]7O)[C@H](O)[C@H]6O)CC[C@]5(C)[C@H]4CC[C@]3(C)[C@H]1[C@@H]2C .
104%

Give a short answer stating reported cell viability for CC=C(C)C(=O)O .
103%

Give a short answer stating reported cell viability for CC(=O)Oc1ccc(C(=C2CCCCC2)c2ccc(OC(C)=O)cc2)cc1 .
96.8%

Give a short answer stating reported cell viability for O=C(Cc1cccc(OC(F)(F)F)c1)Nc1ccc(CCCCc2nnc(NC(=O)Cc3ccccn3)s2)nn1 .
20.1%

Give a short answer stating reported cell viability for C=C1CCC2C(C)(CO)C(O)CCC2(C)C1CC=C1C=COC1=O (configuration not stated) [Dehydroandrographolide] .
74.6%

Give a short answer stating reported cell viability for CC(NCCc1ccc(O)cc1)C(O)c1ccc(O)cc1 (configuration not stated) [Ritodrine hydrochloride (Yutopar)] .
104%

Give a short answer stating reported cell viability for COc1cccc(-c2cc(=O)c3ccccc3o2)c1N .
73.1%

Give a short answer stating reported cell viability for CO[C@H]1C[C@H](O[C@@H]2/C(C)=C/C[C@@H]3C[C@@H](C[C@]4(CC[C@H](C)[C@@H](C5CCCCC5)O4)O3)OC(=O)[C@@H]3C=C(C)/C(=N/O)[C@H]4OC/C(=C\C=C\[C@@H]2C)[C@]43O)O[C@@H](C)[C@@H]1O .
10.6%

Give a short answer stating reported cell viability for COC(=O)[C@H](c1ccccc1Cl)N1CCc2sccc2C1 .
85.4%

Give a short answer stating reported cell viability for CO[C@@]12[C@H](COC(N)=O)C3=C(C(=O)C(C)=C(N)C3=O)N1C[C@@H]1N[C@@H]12 .
0.41%

Give a short answer stating reported cell viability for Nc1nc(CC(=O)Nc2ccc(CCNC[C@H](O)c3ccccc3)cc2)cs1 .
110%

Give a short answer stating reported cell viability for COc1ccccc1OCC(O)CO (configuration not stated) .
105%

Give a short answer stating reported cell viability for CC1=C(C(=O)Nc2ccc3[nH]ncc3c2)C(c2ccc(F)cc2)NC(=O)N1 (configuration not stated) .
33.7%

Give a short answer stating reported cell viability for COC(c1ccccc1)(c1ccccc1)[C@H](Oc1nc(C)cc(C)n1)C(=O)O .
102%

Give a short answer stating reported cell viability for COc1ccc(-n2nc(C(N)=O)c3c2C(=O)N(c2ccc(N4CCCCC4=O)cc2)CC3)cc1 .
98%

Give a short answer stating reported cell viability for O=C1CC[C@@H](C(=O)N2CSC[C@H]2C(=O)O)N1 .
114%

* * *

Tested on: OCI-AML2
Procedure summary: cell viability relative to vehicle control; higher = less cytotoxic
Measurement setup: 10 µM; SRSF2 genotype: wt/wt
Structures can show the parent of a compound that is named as a salt.
Observable: cell viability (%)
State just the number; it will be interpreted in %.

Give a short answer stating reported cell viability for CCCCCCCCCCCCCC(=O)OCC(COC(=O)CCCCCCCCCCCCC)OC(=O)CCCCCCCCCCCCC [Tritetradecanoin] .
107

Give a short answer stating reported cell viability for CC1(C)O[C@@H]2C[C@H]3[C@@H]4CCC5=CC(=O)C=C[C@]5(C)[C@@]4(F)[C@@H](O)C[C@]3(C)[C@]2(C(=O)CO)O1 [Triamcinolone Acetonide] .
115

Give a short answer stating reported cell viability for Cc1c(C(=O)C=Cc2ccccc2)[n+](=O)c2ccccc2n1[O-] [Quinocetone] .
68.6

Give a short answer stating reported cell viability for Fc1ccc([C@@H]2CCNC[C@H]2COc2ccc3c(c2)OCO3)cc1 [Paroxetine HCl] .
52.4

Give a short answer stating reported cell viability for Cc1cccc(C)c1N(CC(=O)Nc1ccc(-c2ncon2)cc1)C(=O)C1CCS(=O)(=O)CC1 [Amenamevir] .
93.4

Give a short answer stating reported cell viability for CCN(CCO)CCCOc1ccc2c(Nc3cc(CC(=O)Nc4cccc(F)c4)[nH]n3)ncnc2c1 [Barasertib (AZD1152-HQPA)] .
36.6

Give a short answer stating reported cell viability for Cc1ccc(S(=O)(=O)c2ccc([N+](=O)[O-])o2)cc1 .
0.26

Give a short answer stating reported cell viability for Nc1nc(=O)[nH]cc1F [Flucytosine (Ancobon)] .
109

Give a short answer stating reported cell viability for C[C@H]1[C@@H](O)O[C@@H]2O[C@@]3(C)CC[C@H]4[C@H](C)CC[C@@H]1[C@@]24OO3 [Dihydroartemisinin (DHA)] .
7.67

Give a short answer stating reported cell viability for CC(C)(CO)c1cc2cc(NC(=O)C3(c4ccc5c(c4)OC(F)(F)O5)CC3)c(F)cc2n1C[C@@H](O)CO .
96

Give a short answer stating reported cell viability for CN(C)C(=O)c1ccc(S(=O)(=O)c2ccc(NC(=O)C(C)(O)C(F)(F)F)c(Cl)c2)cc1 (stereo unspecified) .
55.2

Give a short answer stating reported cell viability for CCCc1nc2c(C)cc(-c3nc4ccccc4n3C)cc2n1Cc1ccc(-c2ccccc2C(=O)O)cc1 [Telmisartan (Micardis)] .
128

Give a short answer stating reported cell viability for COc1cc([C@@H]2Oc3cc([C@H]4Oc5cc(O)cc(O)c5C(=O)[C@@H]4O)ccc3O[C@H]2CO)ccc1O [Silymarin (Silybin B)] .
114

Give a short answer stating reported cell viability for CCCCOC(=O)c1ccccc1Nc1cccc(C(F)(F)F)c1 [Ufenamate] .
110

Give a short answer stating reported cell viability for Cc1ccc(C(=O)Nc2ccc(Oc3cc4cnn(C)c4cc3-c3cn[nH]c3)c(F)c2)c(=O)n1-c1ccc(F)cc1 .
31.6

Give a short answer stating reported cell viability for Oc1c(Cl)cc(Cl)c2cccnc12 [Chloroxine] .
3.9

From: the supplement of paper PMC10981050
